- targetEntity: CDK2 (Homo sapiens)
- Construct: endogenous in cells; host or cells: MKN1 cells
- methodSummary: CDK2 degradation in MKN1 cells (AlphaLISA)
- Type: cell-based
- conditionInfo: 14 h incubation
measuredMetric: CDK2 degradation 14 h: Average Dmax %

Cc1cc(S(=O)(=O)NC2(C)CCN(CC3(F)CCN(c4ccc(C5CCC(=O)NC5=O)cc4)CC3)CC2)ccc1Nc1ncc(C(F)(F)F)c(N2CCC[C@](C)(O)C2)n1 (stereo partly drawn) [I-808] :: A (A (>75% o))
CC1(O)CCCN(c2nc(Nc3ccc(S(=O)(=O)NC4CCC(CN5CCN(c6ccc(C7CCC(=O)NC7=O)cc6F)CC5)CC4)cc3C(F)F)ncc2C(F)(F)F)C1 (stereo not drawn) [I-1113] :: A (A (>75% o))

----------
- targetEntity: CDK2 (Homo sapiens)
- Construct: endogenous in cells; host or cells: MKN1 cells
- methodSummary: CDK2 degradation in MKN1 cells (AlphaLISA)
- Format: cell-based
- conditionInfo: 14 h incubation
measuredMetric: CDK2 degradation 14 h: Average Dmax %

Answered examples (8):
Cc1cc(S(=O)(=O)NC2CCN(CC3CCN(c4ccc(C5CCC(=O)NC5=O)cc4F)CC3)CC2F)ccc1Nc1ncc(C(F)(F)F)c(N2CCCC(C)(O)C2)n1 (stereo not drawn) [I-1140] :: A (A (>75% o))
CC1(O)CCCN(c2nc(Nc3ccc(S(=O)(=O)NC4CCC(CCN5CCN(c6ccc(C7CCC(=O)NC7=O)c(F)c6)CC5)CC4)cc3C(F)F)ncc2C(F)(F)F)C1 (stereo not drawn) [I-1076] :: B (B (>50% -75%))
Cc1cc(S(=O)(=O)C2CCN(C(=O)CN3CCN(c4cccc5c4n(C)c(=O)n5C4CCC(=O)NC4=O)CC3)CC2)ccc1Nc1ncc2cc(Cl)c(=O)n(C3CCCC3)c2n1 (stereo not drawn) [I-48] :: B (B (>50% -75%))
Cc1cc(S(=O)(=O)C2CCC(N3CCC(CN(C)c4cccc5c4n(C)c(=O)n5C4CCC(=O)NC4=O)CC3)CC2)ccc1Nc1ncc2cc(Cl)c(=O)n(C3CCCC3)c2n1 (stereo not drawn) [I-33] :: A (A (>75% o))
Cc1cc(S(=O)(=O)C(C)CCO[C@H]2CC[C@H](CN3CCC(c4ccc5c(c4)n(C4CCC(=O)NC4=O)c(=O)n5C)CC3)CC2)ccc1Nc1ncc2cc(Cl)c(=O)n(C3CCCC3)c2n1 (stereo partly drawn) [I-12] :: A (A (>75% o))
Cc1cc(S(=O)(=O)NC2CCC(CN3CCN(c4ccc(C5CCC(=O)NC5=O)cc4F)CC3C)CC2)ccc1Nc1ncc2c(n1)N(C1CCCC(O)C1)C(=O)C21CC1 (stereo not drawn) [I-966] :: A (A (>75% o))
Cc1cc(S(=O)(=O)C2CCN(CCCN3CCN(c4cccc5c4n(C)c(=O)n5C4CCC(=O)NC4=O)CC3)CC2)ccc1Nc1ncc2cc(Cl)c(=O)n(C(C)C)c2n1 (stereo not drawn) [I-47] :: A (A (>75% o))
Cc1cc(S(=O)(=O)C2CCN(C3CCN(CC4CCN(c5cccc6c5n(C)c(=O)n6C5CCC(=O)NC5=O)CC4)CC3)CC2)ccc1Nc1ncc2cc(Cl)c(=O)n(C(C)C)c2n1 (stereo not drawn) [I-10] :: A (A (>75% o))

Briefly, CDK2 degradation 14 h: Average Dmax % measured for Cc1cc(S(=O)(=O)N2CCC(CN(C)C3CCN(c4cccc5c4n(C)c(=O)n5C4CCC(=O)NC4=O)CC3F)CC2)ccc1Nc1ncc2cc(Cl)c(=O)n(C3CCCC3)c2n1 (stereo not drawn) [I-823] : A (A (>75% o))

Briefly, CDK2 degradation 14 h: Average Dmax % measured for CC1(O)CCCN(c2nc(Nc3ccc(S(=O)(=O)NC4CCN(CC5CCN(c6ccc(C7CCC(=O)NC7=O)c(F)c6)CC5)CC45CC5)cc3F)ncc2C(F)(F)F)C1 (stereo not drawn) [I-1056] : A (A (>75% o))

Briefly, CDK2 degradation 14 h: Average Dmax % measured for Cc1cc(S(=O)(=O)NCCCN2CCN(CC3CCN(c4ccc5c(c4)n(C)c(=O)n5C4CCC(=O)NC4=O)CC3)CC2)ccc1Nc1ncc2cc(Cl)c(=O)n(C3CCCC3)c2n1 (stereo not drawn) [I-431] : A (A (>75% o))

Briefly, CDK2 degradation 14 h: Average Dmax % measured for Cc1cc(S(=O)(=O)NCCOC2CCC3(CC2)CCN(CC#Cc2ccc4c(c2)n(C)c(=O)n4C2CCC(=O)NC2=O)CC3)ccc1Nc1ncc2ccc(=O)n(C3CCCC3)c2n1 (stereo not drawn) [I-471] : A (A (>75% o))

Briefly, CDK2 degradation 14 h: Average Dmax % measured for CC1(O)CCCN(c2nc(Nc3ccc(S(=O)(=O)N4CCN(CC5CCC(Oc6ccc(C7CCC(=O)NC7=O)cc6)CC5)CC4)cc3C(F)F)ncc2C(F)(F)F)C1 (stereo not drawn) [I-1044] : D (D (<25%))

Briefly, CDK2 degradation 14 h: Average Dmax % measured for COc1cc(N2CCC(CN3CCC4(CC3)CC(S(=O)(=O)c3ccc(Nc5ncc6cc(Cl)c(=O)n(C7CCCC7)c6n5)c(C)c3)C4)CC2)ccc1NC1CCC(=O)NC1=O (stereo not drawn) [I-72] : A (A (>75% o))
